Measured On: purified HLA DRB1*0701 (Homo sapiens, UniProt P01903+P01911, A100R/A102G/A103Q/D57E/D86V/E43K/F76Y/K127E/L162R/M171V/P40G/Q125H/Q99D/R33Q/R42Y/R54Q/S133A/S66F/T210M/V115G/Y107V/Y59L/Y89S)
Construct: purified from EBV transformed homozygous cell lines or single MHC allele transfected 721.221, C1R, or fibroblast lines; made in house
Test Protocol: HLA-DR radioligand binding inhibition assay, DRB1*0701
Experimental Setup: IC50 nM purified HLA DRB1 *0701, purified HLA DRB1*0701
Ends that are not written are not given here.
Result Type: IC50 (nM)

- ILLVVVLGVVFGILI [Peptide 9019.0068]: 780

A = ELPLQALVMGEGTCE [Peptide 9019.0182]
B = TMNMLGGGGSAGRKP [Peptide 9019.0184]
[Q] Problem: Given the entries A and B , determine which has the lower reported IC50. # answer = label of selected item
[A] B
